Test system: PEO-1
Assay: Excess HSA synergy score (sum over dose matrix of excess over highest single agent) (score (summed % response)); higher = less synergy / more antagonism (negative = synergy)
Details: 72 h; read-out: viability/apoptosis luminescence (CellTiter-Glo or Caspase3-Glo / not stated per table); matrix design: 10x10, 9-step dilutions (confirmatory)
Where a name gives a salt, the structure may show the parent alone. The full ranking holds about 1,500 compounds; the median of “Excess HSA synergy score (sum over dose matrix of excess over highest single agent)” is about 43, and the lowest 2% start at about -900. The list comes from a sample in which the lowest values are over-represented; it also holds close analogues and randomly drawn compounds.
measurement_type: Excess HSA synergy score
// response body must contain only the number

Prompt: Supply reported Excess HSA synergy score belonging to this compound: Nc1ccccc1NC(=O)c1ccc(CNc2nccc(-c3cccnc3)n2)cc1 [Mocetinostat] + CC[C@H](NC(=O)[C@H](C)NC)C(=O)N1C[C@@H](O)C[C@H]1Cc1c(-c2[nH]c3cc(F)ccc3c2C[C@@H]2C[C@H](O)CN2C(=O)[C@H](CC)NC(=O)[C@H](C)NC)[nH]c2cc(F)ccc12
Completion: -1360

Prompt: Supply reported Excess HSA synergy score belonging to this compound: COC1=C2C[C@@H](C)C[C@H](OC)[C@H](O)[C@@H](C)/C=C(\C)[C@H](OC(N)=O)[C@@H](OC)/C=C\C=C(/C)C(=O)NC(=CC1=O)C2=O [Geldanamycin] + CC[C@H](NC(=O)[C@H](C)NC)C(=O)N1C[C@@H](O)C[C@H]1Cc1c(-c2[nH]c3cc(F)ccc3c2C[C@@H]2C[C@H](O)CN2C(=O)[C@H](CC)NC(=O)[C@H](C)NC)[nH]c2cc(F)ccc12
Completion: -710

Prompt: Supply reported Excess HSA synergy score belonging to this compound: CC(=O)[C@]1(O)Cc2c(O)c3c(c(O)c2[C@@H](O[C@H]2C[C@H](N)[C@H](O)[C@H](C)O2)C1)C(=O)c1ccccc1C3=O [Idarubicin hydrochloride] + CC[C@H](NC(=O)[C@H](C)NC)C(=O)N1C[C@@H](O)C[C@H]1Cc1c(-c2[nH]c3cc(F)ccc3c2C[C@@H]2C[C@H](O)CN2C(=O)[C@H](CC)NC(=O)[C@H](C)NC)[nH]c2cc(F)ccc12
Completion: -1080
